Source listed as the supplement of paper PMC10567573.

Property: protein stability index; scope: individual variants
B1: TRIM9 (parent)
chain: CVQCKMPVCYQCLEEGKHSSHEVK

- Variants of: B1
- METHOD_DESCRIPTION: protein stability index of a GFP-peptide fusion (GPS, HEK-293T) (PSI 1-6); higher = more stable;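 further: lentivirally expressed fusions sorted by FACS into six bins by GFP to DsRed ratio, PSI derived from sequencing read proportions per bin multiplied by bin number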
- MEASUREMENT_CONDITIONS: c terminus: a fixed tail appended
READOUT_NAME: protein stability index

INSERT INTO results (seq_text, recorded_value) VALUES
  ('CVQCKMPVCYQCLEEPKHSSHEVK [G16P]', 3.9),
  ('MVQCKMPVCYQCLEEGKHSSHEVK [C1M]', 2.93),
  ('CVQCKMLVCYQCLEEGKHSSHEVK [P7L]', 3.28),
  ('CVQCKMPVCYGCLEEGKHSSHEVK [Q11G]', 4.92),
  ('CVQCKMPVFYQCLEEGKHSSHEVK [C9F]', 2.59),
  ('CVQCVMPVCYQCLEEGKHSSHEVK [K5V]', 2.41),
  ('CVQCKMPVCYQCLEENKHSSHEVK [G16N]', 4.09),
  ('CVQLKMPVCYQCLEEGKHSSHEVK [C4L]', 3.68),
  ('CVQCKMPVCYQCLEEGKHSSHEVL [K24L]', 3.8),
  ('CVMCKMPVCYQCLEEGKHSSHEVK [Q3M]', 3.4),
  ('CVQCKMPVCYQCLEEGKHSSTEVK [H21T]', 4.47),
  ('CVQCKMPVCYQCLEEGKHSSHEVD [K24D]', 4.73),
  ('CVQCKMPVCYQSLEEGKHSSHEVK [C12S]', 4.48),
  ('CVQCKMPVCYQPLEEGKHSSHEVK [C12P]', 3),
  ('CVQCKMPVCYRCLEEGKHSSHEVK [Q11R]', 3.77),
  ('CCQCKMPVCYQCLEEGKHSSHEVK [V2C]', 3.98),
  ('CVQCKMPVCYQCLEEGKQSSHEVK [H18Q]', 3.47),
  ('CVQVKMPVCYQCLEEGKHSSHEVK [C4V]', 2.9),
  ('CVQCKMPECYQCLEEGKHSSHEVK [V8E]', 4.41),
  ('CVQCKMPVCYQCLEEGKHSSHPVK [E22P]', 3.33),
  ('CVQCKMPVCYQCLEEGIHSSHEVK [K17I]', 3.61),
  ('CVQCKMPVCYQCLEEGKNSSHEVK [H18N]', 3.94),
  ('CVQCKMPVCYQCLEEGKHSSREVK [H21R]', 3.36),
  ('CVQCKMPPCYQCLEEGKHSSHEVK [V8P]', 3.61),
  ('CVQDKMPVCYQCLEEGKHSSHEVK [C4D]', 4.01),
  ('CVQCKMPVCYQCLEEGKHSSHEMK [V23M]', 4),
  ('CVQCKMPVCYQALEEGKHSSHEVK [C12A]', 3.35),
  ('CVQCKMPVCYQCLEEGKRSSHEVK [H18R]', 3.82),
  ('CVQCKMPVCYQCLEEGKHSFHEVK [S20F]', 2.59),
  ('CVQCKMPVCYQCIEEGKHSSHEVK [L13I]', 4.08),
  ('CVQCKMPVCYCCLEEGKHSSHEVK [Q11C]', 4.83),
  ('CVQCKMPVCYQCLEEGKHSSCEVK [H21C]', 4.1),
  ('CVQCKMCVCYQCLEEGKHSSHEVK [P7C]', 4.06),
  ('CVQCKDPVCYQCLEEGKHSSHEVK [M6D]', 4.71),
  ('CVQCKMPVCYQCLEELKHSSHEVK [G16L]', 3.49),
  ('DVQCKMPVCYQCLEEGKHSSHEVK [C1D]', 3.77),
  ('CIQCKMPVCYQCLEEGKHSSHEVK [V2I]', 4.02),
  ('HVQCKMPVCYQCLEEGKHSSHEVK [C1H]', 4.52),
  ('CVQCKMPVCYQQLEEGKHSSHEVK [C12Q]', 4.03),
  ('CVQWKMPVCYQCLEEGKHSSHEVK [C4W]', 3.17),
  ('CVQCKMPVCYQCPEEGKHSSHEVK [L13P]', 4.47),
  ('CVQCKMPVSYQCLEEGKHSSHEVK [C9S]', 4.24),
  ('CVQCKMPVCYQCSEEGKHSSHEVK [L13S]', 4.7),
  ('CVQCKMPVCYQCLEEGNHSSHEVK [K17N]', 3.65),
  ('CVTCKMPVCYQCLEEGKHSSHEVK [Q3T]', 3.56),
  ('CVQCKMPVCYQMLEEGKHSSHEVK [C12M]', 3.7),
  ('CVQCKMPVCYQCLEEGKHSSHEVA [K24A]', 4.28),
  ('CVQCKMPVGYQCLEEGKHSSHEVK [C9G]', 4.47),
  ('CVQCKKPVCYQCLEEGKHSSHEVK [M6K]', 4.46),
  ('CVQCKFPVCYQCLEEGKHSSHEVK [M6F]', 3.89),
  ('CVQCKMPVCYQCLEPGKHSSHEVK [E15P]', 3.88),
  ('QVQCKMPVCYQCLEEGKHSSHEVK [C1Q]', 4.03),
  ('CVQCKMPVCYQCLEEGKHSSHSVK [E22S]', 3.68),
  ('CVQCKMPRCYQCLEEGKHSSHEVK [V8R]', 3.75),
  ('CVNCKMPVCYQCLEEGKHSSHEVK [Q3N]', 4.49),
  ('CVQCKMPVCYQCLEEGKHSSHECK [V23C]', 4.65),
  ('CVQCKMPVCYQCLEHGKHSSHEVK [E15H]', 3.36),
  ('CVQCDMPVCYQCLEEGKHSSHEVK [K5D]', 3.75),
  ('CVQCKMPVCYQCLEEGKWSSHEVK [H18W]', 3.04),
  ('CVQCKMPVCYQCLFEGKHSSHEVK [E14F]', 2.97),
  ('CVQCKMPVCYQILEEGKHSSHEVK [C12I]', 2.28),
  ('CVQCKMPVCYQCNEEGKHSSHEVK [L13N]', 3.46),
  ('CVQCKMPVCYQCLEEGSHSSHEVK [K17S]', 3.42),
  ('CVQCKMPVCYQCLEEGKHSSHRVK [E22R]', 3.12),
  ('CVQCKMPVCYQCLEEGKHYSHEVK [S19Y]', 3.1),
  ('CVQCKMPVCYQCLEEGKVSSHEVK [H18V]', 3),
  ('CRQCKMPVCYQCLEEGKHSSHEVK [V2R]', 3.8),
  ('CVQCKMPVCYQCLEERKHSSHEVK [G16R]', 3.27),
  ('CVQCKMPVCYQCLEVGKHSSHEVK [E15V]', 3.47),
  ('CVQCKMPVCYQCLEEGKHASHEVK [S19A]', 4.41),
  ('CVQCKMPVCYQCLEEGKHSSHTVK [E22T]', 4),
  ('CVQCKMPVCYQCLEEGKHSNHEVK [S20N]', 3.69),
  ('CVQCKMPVCYQCLEEGKCSSHEVK [H18C]', 3.79),
  ('CVQCKMPVCYQCLEEGKHSSHENK [V23N]', 3.98),
  ('CVQCKMPVCDQCLEEGKHSSHEVK [Y10D]', 4.83),
  ('CVQCKMPVCYQCLEEGPHSSHEVK [K17P]', 3.75),
  ('CQQCKMPVCYQCLEEGKHSSHEVK [V2Q]', 4.04),
  ('CVQCKMPVCYQCLPEGKHSSHEVK [E14P]', 3.75),
  ('CVQCKPPVCYQCLEEGKHSSHEVK [M6P]', 3.62),
  ('CVQNKMPVCYQCLEEGKHSSHEVK [C4N]', 3.3),
  ('CVQCKMPVCYQCLEEGKHSSHEFK [V23F]', 3.65),
  ('CVQCKMPVCYQCLEEGKHSSHIVK [E22I]', 3.8),
  ('CVQCKMPVCYQCLEEGKHSHHEVK [S20H]', 4.3),
  ('CVQCKMPVCYQCLEEGKHSSKEVK [H21K]', 3.76),
  ('CVQCKRPVCYQCLEEGKHSSHEVK [M6R]', 4.17),
  ('CVQCKMPVAYQCLEEGKHSSHEVK [C9A]', 4.19),
  ('CVQCKMPVCYQCLEEGKHPSHEVK [S19P]', 4.17),
  ('CVQCKMPVCYQYLEEGKHSSHEVK [C12Y]', 3.58),
  ('CVQCKMNVCYQCLEEGKHSSHEVK [P7N]', 4.14),
  ('CVQCKMPVNYQCLEEGKHSSHEVK [C9N]', 3.87),
  ('CVQCKMPVCYQCLEEGKFSSHEVK [H18F]', 3.78);
